Source of measurements: the supplement of paper PMC10307832

Tested on: IA-LM
Experiment: relative viability (nuclei count vs DMSO), 5 days (fraction); higher = more cells survive
Conditions: first compound 0.1581 µM
# reported relative viability; entries follow

MOLECULE | relative viability
COc1cc2nccc(Oc3ccc(NC(=O)Nc4cc(C)on4)c(Cl)c3)c2cc1OC [Tivozanib] + CS(=O)(=O)N1CCN(Cc2cc3nc(-c4cccc5[nH]ncc45)nc(N4CCOCC4)c3s2)CC1 [Pictilisib] (partner 1 µM) | 0.316
Nc1ccn([C@@H]2O[C@H](CO)[C@@H](O)[C@@H]2O)c(=O)n1 [Cytarabine] + CS(=O)(=O)N1CCN(Cc2cc3nc(-c4cccc5[nH]ncc45)nc(N4CCOCC4)c3s2)CC1 [Pictilisib] (partner 1 µM) | 0.154
Nc1ccn([C@@H]2O[C@H](CO)[C@@H](O)[C@@H]2O)c(=O)n1 [Cytarabine] + CC(C)C[C@H](NC(=O)[C@H](Cc1ccccc1)NC(=O)c1cnccn1)B(O)O [Bortezomib] (partner 0.002 µM) | 0.411

Let's switch to this molecule now.
# input Check the records and state relative viability for COc1cc2nccc(Oc3ccc(NC(=O)Nc4cc(C)on4)c(Cl)c3)c2cc1OC [Tivozanib] + COc1cc2c(Oc3ccc(NC(=O)C4(C(=O)Nc5ccc(F)cc5)CC4)cc3F)ccnc2cc1OCCCN1CCOCC1 [Foretinib] (partner 0.25 µM)
# output 1.32

----------
# reported relative viability; entries follow
Tested on: NCI-H596
Test: relative viability (nuclei count vs DMSO), 5 days (fraction); higher = more cells survive
Conditions: first compound 0.8 µM
Write no unit; give the number alone.

These solved cases illustrate the format of a correct answer.
MOLECULE | relative viability
O=c1[nH]c2ccccc2n1C1CCN(CCCC(c2ccc(F)cc2)c2ccc(F)cc2)CC1 [Pimozide] + Cc1nc(Nc2ncc(C(=O)Nc3c(C)cccc3Cl)s2)cc(N2CCN(CCO)CC2)n1 [Dasatinib] (partner 0.075 µM) | 0.624
O=c1[nH]c2ccccc2n1C1CCN(CCCC(c2ccc(F)cc2)c2ccc(F)cc2)CC1 [Pimozide] + C[C@@H](Oc1cc(-c2cnn(C3CCNCC3)c2)cnc1N)c1c(Cl)ccc(F)c1Cl [Crizotinib] (partner 1 µM) | 0.928
O=c1[nH]c2ccccc2n1C1CCN(CCCC(c2ccc(F)cc2)c2ccc(F)cc2)CC1 [Pimozide] + Nc1nc2[nH]cc(CCc3ccc(C(=O)N[C@@H](CCC(=O)O)C(=O)O)cc3)c2c(=O)[nH]1 [Pemetrexed] (partner 0.2 µM) | 0.534

Let's switch to this molecule now.
# input Check the records and state relative viability for Cc1cnc(-c2cnc(NCCNc3ccc(C#N)cn3)nc2-c2ccc(Cl)cc2Cl)[nH]1 + Cc1nc(NC(=O)N2CCC[C@H]2C(N)=O)sc1-c1ccnc(C(C)(C)C(F)(F)F)c1 [Alpelisib] (partner 2 µM)
# output 0.517

----------
Tested on: NCI-H838
Test: relative viability (nuclei count vs DMSO), 5 days (fraction); higher = more cells survive
Conditions: first compound 0.08 µM
Quick rule for you: relative viability under 0.7 gets rule met, anything else gets rule not met.

Record excerpt, results attached:
COMPOUND | CATEGORY
O=c1[nH]c2ccccc2n1C1CCN(CCCC(c2ccc(F)cc2)c2ccc(F)cc2)CC1 [Pimozide] + Nc1nc2[nH]cc(CCc3ccc(C(=O)N[C@@H](CCC(=O)O)C(=O)O)cc3)c2c(=O)[nH]1 [Pemetrexed] (partner 0.2 µM) | rule met
Cc1cnc(-c2cnc(NCCNc3ccc(C#N)cn3)nc2-c2ccc(Cl)cc2Cl)[nH]1 + CS(=O)(=O)CCNCc1ccc(-c2ccc3ncnc(Nc4ccc(OCc5cccc(F)c5)c(Cl)c4)c3c2)o1 [Lapatinib] (partner 2 µM) | rule not met
Cc1cnc(-c2cnc(NCCNc3ccc(C#N)cn3)nc2-c2ccc(Cl)cc2Cl)[nH]1 + O=C(CCCCCCC(=O)Nc1ccccc1)NO [Vorinostat] (partner 1 µM) | rule not met
Cc1cnc(-c2cnc(NCCNc3ccc(C#N)cn3)nc2-c2ccc(Cl)cc2Cl)[nH]1 + N=C(N)NC(=N)NCCc1ccccc1 [Phenformin] (partner 250 µM) | rule met
O=c1[nH]c2ccccc2n1C1CCN(CCCC(c2ccc(F)cc2)c2ccc(F)cc2)CC1 [Pimozide] + C[C@]1(O)C[C@@H](c2nc(-c3ccc4ccc(-c5ccccc5)nc4c3)c3c(N)nccn32)C1 [Linsitinib] (partner 1 µM) | rule not met

Please turn your attention to the following entry.
# input Please determine if O=c1[nH]c2ccccc2n1C1CCN(CCCC(c2ccc(F)cc2)c2ccc(F)cc2)CC1 [Pimozide] + Cc1nc(Nc2ncc(C(=O)Nc3c(C)cccc3Cl)s2)cc(N2CCN(CCO)CC2)n1 [Dasatinib] (partner 0.075 µM) is below 0.7 in terms of relative viability.
# output rule met

----------
Test system: NCI-H661
Experiment: relative viability (nuclei count vs DMSO), 5 days (fraction); higher = more cells survive
Details: first compound 0.002 µM
PROPERTY: relative viability
Write no unit; give the number alone.

These solved cases illustrate the format of a correct answer.
COMPOUND | relative viability
CC(=O)O[C@@]12CO[C@@H]1C[C@H](O)[C@@]1(C)C(=O)[C@H](O)C3=C(C)[C@@H](OC(=O)[C@H](O)[C@@H](NC(=O)OC(C)(C)C)c4ccccc4)C[C@@](O)([C@@H](OC(=O)c4ccccc4)[C@H]21)C3(C)C [Docetaxel] + CCNC(=O)c1noc(-c2cc(C(C)C)c(O)cc2O)c1-c1ccc(CN2CCOCC2)cc1 [Luminespib] (partner 0.01 µM) | 0.707
CC(=O)O[C@@]12CO[C@@H]1C[C@H](O)[C@@]1(C)C(=O)[C@H](O)C3=C(C)[C@@H](OC(=O)[C@H](O)[C@@H](NC(=O)OC(C)(C)C)c4ccccc4)C[C@@](O)([C@@H](OC(=O)c4ccccc4)[C@H]21)C3(C)C [Docetaxel] + N=C(N)NC(=N)NCCc1ccccc1 [Phenformin] (partner 250 µM) | 0.317

# input Check the records and state relative viability for CC(=O)O[C@@]12CO[C@@H]1C[C@H](O)[C@@]1(C)C(=O)[C@H](O)C3=C(C)[C@@H](OC(=O)[C@H](O)[C@@H](NC(=O)OC(C)(C)C)c4ccccc4)C[C@@](O)([C@@H](OC(=O)c4ccccc4)[C@H]21)C3(C)C [Docetaxel] + Nc1nc2[nH]cc(CCc3ccc(C(=O)N[C@@H](CCC(=O)O)C(=O)O)cc3)c2c(=O)[nH]1 [Pemetrexed] (partner 0.2 µM)
# output 0.799

----------
System: EMC-BAC-2
Assay: relative viability (nuclei count vs DMSO), 5 days (fraction); higher = more cells survive
Details: first compound 0.01581 µM
PROPERTY: relative viability
Write no unit; give the number alone.

COMPOUND | relative viability
Nc1ccn([C@@H]2O[C@H](CO)[C@@H](O)[C@@H]2O)c(=O)n1 [Cytarabine] + Cc1nc(NC(=O)N2CCC[C@H]2C(N)=O)sc1-c1ccnc(C(C)(C)C(F)(F)F)c1 [Alpelisib] (partner 2 µM) | 0.658

Let's switch to this compound now.
# input Check the records and state relative viability for COc1cc2nccc(Oc3ccc(NC(=O)Nc4cc(C)on4)c(Cl)c3)c2cc1OC [Tivozanib] + CC1(C)CCC(c2ccc(Cl)cc2)=C(CN2CCN(c3ccc(C(=O)NS(=O)(=O)c4ccc(N[C@H](CCN5CCOCC5)CSc5ccccc5)c(S(=O)(=O)C(F)(F)F)c4)cc3)CC2)C1 [Navitoclax] (partner 0.5 µM)
# output 1.11

----------
Test system: NCI-H441
Assay: relative viability (nuclei count vs DMSO), 5 days (fraction); higher = more cells survive
Conditions: first compound 0.1265 µM
PROPERTY: relative viability
Write no unit; give the number alone.

COMPOUND | RECORDED VALUE
Cc1sc2c(c1C)C(c1ccc(Cl)cc1)=N[C@@H](CC(=O)OC(C)(C)C)c1nnc(C)n1-2 [JQ1] + N=C(N)NC(=N)NCCc1ccccc1 [Phenformin] (partner 250 µM) | 0.778

# input Check the records and state relative viability for Cc1sc2c(c1C)C(c1ccc(Cl)cc1)=N[C@@H](CC(=O)OC(C)(C)C)c1nnc(C)n1-2 [JQ1] + CC(=O)Nc1cccc(-n2c(=O)n(C3CC3)c(=O)c3c(Nc4ccc(I)cc4F)n(C)c(=O)c(C)c32)c1 [Trametinib] (partner 0.02 µM)
# output 0.377

# input Check the records and state relative viability for Cc1sc2c(c1C)C(c1ccc(Cl)cc1)=N[C@@H](CC(=O)OC(C)(C)C)c1nnc(C)n1-2 [JQ1] + Cc1nc(Nc2ncc(C(=O)Nc3c(C)cccc3Cl)s2)cc(N2CCN(CCO)CC2)n1 [Dasatinib] (partner 0.075 µM)
# output 0.572

----------
Test system: IA-LM
Assay: relative viability (nuclei count vs DMSO), 5 days (fraction); higher = more cells survive
Conditions: first compound 4 µM
# reported relative viability; entries follow

COMPOUND | SYSTEM TESTED | RECORDED VALUE
Cc1sc2c(c1C)C(c1ccc(Cl)cc1)=N[C@@H](CC(=O)OC(C)(C)C)c1nnc(C)n1-2 [JQ1] + O=C(c1cc(Cc2n[nH]c(=O)c3ccccc23)ccc1F)N1CCN(C(=O)C2CC2)CC1 [Olaparib] (partner 8 µM) | IA-LM | 0.117
Cc1sc2c(c1C)C(c1ccc(Cl)cc1)=N[C@@H](CC(=O)OC(C)(C)C)c1nnc(C)n1-2 [JQ1] + Cc1nc(NC(=O)N2CCC[C@H]2C(N)=O)sc1-c1ccnc(C(C)(C)C(F)(F)F)c1 [Alpelisib] (partner 2 µM) | IA-LM | 0.103

# input Check the records and state relative viability for Cc1sc2c(c1C)C(c1ccc(Cl)cc1)=N[C@@H](CC(=O)OC(C)(C)C)c1nnc(C)n1-2 [JQ1] + CS(=O)(=O)CCNCc1ccc(-c2ccc3ncnc(Nc4ccc(OCc5cccc(F)c5)c(Cl)c4)c3c2)o1 [Lapatinib] (partner 2 µM)
# output 0.116
